Entry source: paper PMC9323974

biological target: BSA (Bos taurus, UniProt P02769); construct: purchased Sigma-Aldrich Co; assay: Competitive BSA-fluorescence studies with warfarin and ibuprofen; format: binding, bovine; details: read-out: BSA-binding constant K, Marker: Warfarin; warfarin 3 μM
Sequence (P02769 25-607): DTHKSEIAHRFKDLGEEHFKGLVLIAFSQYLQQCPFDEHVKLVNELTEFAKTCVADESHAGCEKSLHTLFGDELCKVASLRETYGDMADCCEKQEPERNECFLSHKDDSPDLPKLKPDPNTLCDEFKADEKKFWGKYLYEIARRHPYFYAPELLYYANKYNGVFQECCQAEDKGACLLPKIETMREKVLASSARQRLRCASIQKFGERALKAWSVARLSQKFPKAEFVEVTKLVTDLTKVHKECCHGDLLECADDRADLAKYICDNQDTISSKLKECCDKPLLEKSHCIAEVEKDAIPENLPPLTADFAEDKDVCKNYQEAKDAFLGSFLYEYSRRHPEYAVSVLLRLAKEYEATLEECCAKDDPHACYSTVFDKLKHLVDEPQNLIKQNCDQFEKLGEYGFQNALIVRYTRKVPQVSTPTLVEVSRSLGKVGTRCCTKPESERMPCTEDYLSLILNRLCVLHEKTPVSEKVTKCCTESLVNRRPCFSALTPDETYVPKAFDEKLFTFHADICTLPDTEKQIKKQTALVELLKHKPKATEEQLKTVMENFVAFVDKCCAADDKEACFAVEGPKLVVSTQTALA
Below, each entry is listed with its recorded Kd.
Please give the number followed by its unit.

Reference set (2 entries):
| COMPOUND | RECORDED ENDPOINT | REPORTED VALUE |
| --- | --- | --- |
| CCN(CC)c1ccc(C=O)c(O)c1 [4-Et2N-saloH, 4-diethylamino-salicylaldehyde, reference compound] | Kd | 7.52 µM |
| COc1ccc(C=O)c(O)c1 [4-OMe-saloH, 4-methoxy-salicylaldehyde, reference compound] | Kd | 68.5 µM |

Turning to the following compound.
So for O=Cc1cc(F)ccc1O [5-F-saloH, 5-fluoro-salicylaldehyde, reference compound] , the logged Kd turned out to be 33.1 µM

###

relative BSA-fluorescence emission intensity, % of the initial for assorted compounds
biological target: BSA (Bos taurus); construct: purchased Sigma-Aldrich Co; experiment: BSA fluorescence quenching; assay type: binding, bovine; settings: final value
Give the value, in units of %, as a plain number.

| COMPOUND | REPORTED VALUE |
| --- | --- |
| O=Cc1cc(Cl)cc(Cl)c1[O-].O=Cc1cc(Cl)cc(Cl)c1[O-].[Pd+2] [Complex 3, [Pd(3,5-diCl-salo)2]] | 2.8 |
| O=Cc1cc(Br)cc(Br)c1[O][Pd][O]c1c(Br)cc(Br)cc1C=O [Complex 2, [Pd(3,5-diBr-salo)2]] | 2.5 |
| O=Cc1cc(F)ccc1[O-].O=Cc1cc(F)ccc1[O-].[Pd+2] [Complex 4, [Pd(5-F-salo)2]] | 14.3 |
| CCN(CC)c1ccc(C=O)c([O][Pd][O]c2cc(N(CC)CC)ccc2C=O)c1 [Complex 1, [Pd(4-Et2N-salo)2]] | 7.2 |

// next item, relative BSA-fluorescence emission intensity, % of the initial requested
Data point: COc1ccc(C=O)c([O-])c1.COc1ccc(C=O)c([O-])c1.[Pd+2] [Complex 5, [Pd(4-OMe-salo)2]] ; relative BSA-fluorescence emission intensity, % of the initial = 2.8

###

target: HSA (Homo sapiens); construct: purchased Sigma-Aldrich Co; assay: HSA fluorescence quenching; type: binding; conditions: final value
Sequence (P02768 25-609): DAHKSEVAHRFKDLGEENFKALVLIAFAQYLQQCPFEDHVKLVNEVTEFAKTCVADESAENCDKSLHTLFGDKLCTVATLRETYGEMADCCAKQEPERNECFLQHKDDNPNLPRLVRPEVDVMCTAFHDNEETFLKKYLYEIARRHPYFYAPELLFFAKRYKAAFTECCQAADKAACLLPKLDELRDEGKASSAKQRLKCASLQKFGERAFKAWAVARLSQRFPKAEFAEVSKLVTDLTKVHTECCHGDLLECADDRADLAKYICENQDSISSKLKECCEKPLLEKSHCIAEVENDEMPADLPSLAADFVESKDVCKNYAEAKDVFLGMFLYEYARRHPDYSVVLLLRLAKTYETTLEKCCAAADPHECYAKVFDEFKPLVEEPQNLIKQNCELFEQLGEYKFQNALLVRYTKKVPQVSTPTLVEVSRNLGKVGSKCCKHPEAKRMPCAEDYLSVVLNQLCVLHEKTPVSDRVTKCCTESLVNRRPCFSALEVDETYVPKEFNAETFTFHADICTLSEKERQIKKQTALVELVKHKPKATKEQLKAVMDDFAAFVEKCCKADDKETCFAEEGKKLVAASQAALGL
In this section, each of the compounds is paired with its reported relative HSA-fluorescence emission intensity, % of the initial.
Answer with a number only, understood to be in %.

For orientation, consider the following solved cases.
| COMPOUND | READOUT UNITS | REPORTED VALUE |
| --- | --- | --- |
| COc1ccc(C=O)c([O-])c1.COc1ccc(C=O)c([O-])c1.[Pd+2] [Complex 5, [Pd(4-OMe-salo)2]] | % | 7.8 |
| O=Cc1cc(Br)cc(Br)c1[O][Pd][O]c1c(Br)cc(Br)cc1C=O [Complex 2, [Pd(3,5-diBr-salo)2]] | % | 11.2 |

Consider CCN(CC)c1ccc(C=O)c([O][Pd][O]c2cc(N(CC)CC)ccc2C=O)c1 [Complex 1, [Pd(4-Et2N-salo)2]] . Its measured relative HSA-fluorescence emission intensity, % of the initial is 8.2

According to the records, this compound O=Cc1cc(Cl)cc(Cl)c1[O-].O=Cc1cc(Cl)cc(Cl)c1[O-].[Pd+2] [Complex 3, [Pd(3,5-diCl-salo)2]] displays relative HSA-fluorescence emission intensity, % of the initial of 9.6

Form: compound = O=Cc1cc(F)ccc1[O-].O=Cc1cc(F)ccc1[O-].[Pd+2] [Complex 4, [Pd(5-F-salo)2]] ; relative HSA-fluorescence emission intensity, % of the initial = 24.3

###

test: ABTS radical cation scavenging; conditions: compound 0.1 mM
RECORDED ENDPOINT: ABTS% (%)
Give the number; % is assumed, so skip it.

Example results:
| COMPOUND | ABTS% / % |
| --- | --- |
| CCN(CC)c1ccc(C=O)c(O)c1 [4-Et2N-saloH, 4-diethylamino-salicylaldehyde, reference compound] | 25.84 |
| COc1ccc(C=O)c(O)c1 [4-OMe-saloH, 4-methoxy-salicylaldehyde, reference compound] | 40.83 |
| COc1ccc(C=O)c([O-])c1.COc1ccc(C=O)c([O-])c1.[Pd+2] [Complex 5, [Pd(4-OMe-salo)2]] | 96.66 |
| O=Cc1cc(F)ccc1O [5-F-saloH, 5-fluoro-salicylaldehyde, reference compound] | 19.57 |
| O=Cc1cc(F)ccc1[O-].O=Cc1cc(F)ccc1[O-].[Pd+2] [Complex 4, [Pd(5-F-salo)2]] | 63.30 |

Please fill in: ABTS% reported for CCN(CC)c1ccc(C=O)c([O][Pd][O]c2cc(N(CC)CC)ccc2C=O)c1 [Complex 1, [Pd(4-Et2N-salo)2]] = 97.05

Note to self: ABTS% recorded for Cc1c(C)c2c(c(C)c1O)CCC(C)(C(=O)O)O2 (stereo not drawn) [Trolox, reference compound] was 98.10

The reported ABTS% of the compound O=Cc1cc(Cl)cc(Cl)c1[O-].O=Cc1cc(Cl)cc(Cl)c1[O-].[Pd+2] [Complex 3, [Pd(3,5-diCl-salo)2]] was 63.45

Entry under test: O=Cc1cc(Br)cc(Br)c1[O][Pd][O]c1c(Br)cc(Br)cc1C=O [Complex 2, [Pd(3,5-diBr-salo)2]] . Its ABTS% was 50.46

###

target: BSA (Bos taurus, UniProt P02769); construct: purchased Sigma-Aldrich Co; experiment: Competitive BSA-fluorescence studies with warfarin and ibuprofen; assay type: binding, bovine; details: no marker
Listing: BSA-binding constant K, No Marker of selected compounds

Use these answered entries as a reference point.
| COMPOUND | SYSTEM NAME | BSA-binding constant K, No Marker |
| --- | --- | --- |
| CCN(CC)c1ccc(C=O)c([O][Pd][O]c2cc(N(CC)CC)ccc2C=O)c1 [Complex 1, [Pd(4-Et2N-salo)2]] | BSA (Bos taurus, UniProt P02769) | 1.08 (±0.06) × 10^5 M^−1 |
| O=Cc1cc(Br)cc(Br)c1[O][Pd][O]c1c(Br)cc(Br)cc1C=O [Complex 2, [Pd(3,5-diBr-salo)2]] | BSA (Bos taurus, UniProt P02769) | 1.50 (±0.06) × 10^6 M^−1 |
| O=Cc1cc(F)ccc1[O-].O=Cc1cc(F)ccc1[O-].[Pd+2] [Complex 4, [Pd(5-F-salo)2]] | BSA (Bos taurus, UniProt P02769) | 8.79 (±0.13) × 10^4 M^−1 |
| O=Cc1cc(Cl)cc(Cl)c1[O-].O=Cc1cc(Cl)cc(Cl)c1[O-].[Pd+2] [Complex 3, [Pd(3,5-diCl-salo)2]] | BSA (Bos taurus, UniProt P02769) | 7.82 (±0.24) × 10^5 M^−1 |

Just so you know, measured BSA-binding constant K, No Marker for COc1ccc(C=O)c([O-])c1.COc1ccc(C=O)c([O-])c1.[Pd+2] [Complex 5, [Pd(4-OMe-salo)2]] came out at 9.18 (±0.27) × 10^5 M^−1

###

biological target: CT DNA; test: CT DNA binding by UV-vis spectroscopy; design: species or system calf; conditions: Wolfe–Shimer equation
A collection of compounds and their measured Kb (DNA-binding constant)

Solved entries (count: 5):
| COMPOUND | SYSTEM NAME | Kb (DNA-binding constant) |
| --- | --- | --- |
| O=Cc1cc(F)ccc1O [5-F-saloH, 5-fluoro-salicylaldehyde, reference compound] | CT DNA | 8.37 (±0.47) × 10^4 M^−1 |
| O=Cc1cc(Br)cc(Br)c1[O][Pd][O]c1c(Br)cc(Br)cc1C=O [Complex 2, [Pd(3,5-diBr-salo)2]] | CT DNA | 3.18 (±0.21) × 10^5 M^−1 |
| COc1ccc(C=O)c([O-])c1.COc1ccc(C=O)c([O-])c1.[Pd+2] [Complex 5, [Pd(4-OMe-salo)2]] | CT DNA | 1.27 (±0.10) × 10^6 M^−1 |
| O=Cc1cc(Cl)cc(Cl)c1[O-].O=Cc1cc(Cl)cc(Cl)c1[O-].[Pd+2] [Complex 3, [Pd(3,5-diCl-salo)2]] | CT DNA | 1.90 (±0.12) × 10^6 M^−1 |
| CCN(CC)c1ccc(C=O)c([O][Pd][O]c2cc(N(CC)CC)ccc2C=O)c1 [Complex 1, [Pd(4-Et2N-salo)2]] | CT DNA | 3.66 (±0.22) × 10^5 M^−1 |

Per the record, O=Cc1cc(F)ccc1[O-].O=Cc1cc(F)ccc1[O-].[Pd+2] [Complex 4, [Pd(5-F-salo)2]] has Kb (DNA-binding constant) of 2.84 (±0.14) × 10^5 M^−1

Form field Kb (DNA-binding constant), entry CCN(CC)c1ccc(C=O)c(O)c1 [4-Et2N-saloH, 4-diethylamino-salicylaldehyde, reference compound] : 5.06 (±0.14) × 10^5 M^−1
